System: DND-41;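 further: ALL cell lines in 384-well plates, five doses spanning 10,000-fold, each plate scaled between vehicle and 100 µmol/L benzalkonium chloride controls, sDSS an adapted area-under-curve metric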
Assay: selective drug sensitivity score (sDSS, relative to normal bone marrow) (sDSS (score)); higher = more potent and effective on the cell line relative to normal bone marrow cells
Conditions: 72 h
Listed compounds paired with reported selective drug sensitivity score

| COMPOUND | selective drug sensitivity score |
| --- | --- |
| Sc1ncnc2nc[nH]c12 [Mercaptopurine] (top concentration 10000 nM) | 11.1 |
| Cc1cc(-c2nc(-c3ccc(OC(F)(F)F)cc3)no2)nn1Cc1ccnc(N2CCN(C3CC3)CC2)c1 [BAY_87-2243] (top concentration 1000 nM) | 6.84 |
| CC1=C2C[C@H]3[C@@H](CC[C@@H]4C[C@H](NS(C)(=O)=O)CC[C@@]43C)[C@@H]2CC[C@@]2(C1)O[C@@H]1C[C@H](C)CN[C@H]1[C@H]2C [Saridegib] (top concentration 10000 nM) | 4.74 |
| NC[C@@](O)(c1ccc(Cl)cc1)c1ccc(-c2cn[nH]c2)cc1 (top concentration 10000 nM) | -1.22 |
| CC(C)c1cc(C(=O)N2Cc3ccc(CN4CCN(C)CC4)cc3C2)c(O)cc1O [Onalespib] (top concentration 2500 nM) | 4.62 |
| C#Cc1cccc(Nc2ncnc3cc4c(cc23)OCCOCCOCCO4)c1 [Icotinib] (top concentration 10000 nM) | 0 |
| C[C@H]1CNCCCN1S(=O)(=O)c1cccc2cncc(F)c12 [Ripasudil] (top concentration 10000 nM) | -0.22 |
| Cc1cc2c(C(=O)NC[C@H](C)c3ccccc3)c(O)c(O)cc2c(O)c1-c1c(C)cc2c(C(=O)NC[C@H](C)c3ccccc3)c(O)c(O)cc2c1O [Sabutoclax] (top concentration 25000 nM) | 10.6 |
| CC1(C)NC(=O)N(c2ccc([N+](=O)[O-])c(C(F)(F)F)c2)C1=O [Nilutamide] (top concentration 10000 nM) | -0.38 |
| O=C(CCCCCCC(=O)Nc1ccc([C@H]2O[C@@H](CSc3nc(-c4ccccc4)c(-c4ccccc4)o3)C[C@@H](c3ccc(CO)cc3)O2)cc1)NO [Tubacin] (top concentration 10000 nM) | 5.54 |

All values here come from the supplement of paper PMC8967900.
